# System: Pectobacterium atrosepticum 1043
# method: Agar-well diffusion, bactericidal activity
# Assay type: cell-based
# measurement parameters: Pectobacterium atrosepticum, 1043; 2 mM/L; average of 3 experiments; read-out: width of the inhibition zone (mm), P. atrosepticum
The compounds listed here are annotated with their zone of inhibition at 2000 µM.
metric name: zone of inhibition at 2000 µM (mm)

>>> experimental_result("Cc1ccc2c(c1)C(=NNC(=O)C[n+]1ccccc1)C(=O)N2Cc1cccc(C(F)(F)F)c1.[Cl-] [Compound 5e]")
4
>>> experimental_result("O=C(C[n+]1ccccc1)NN=C1C(=O)N(Cc2ccccc2F)c2ccc(F)cc21.[Cl-] [Compound 5a]")
6
>>> experimental_result("O=C(C[n+]1ccccc1)NN=C1C(=O)N(Cc2c(F)c(F)c(F)c(F)c2F)c2ccc(F)cc21.[Cl-] [Compound 5d]")
4
>>> experimental_result("Cc1ccc[n+](CC(=O)N/N=C2\\C(=O)N(Cc3ccccc3F)c3ccccc32)c1C [Compound 7a]")
3
>>> experimental_result("Cc1ccc[n+](CC(=O)N/N=C2\\C(=O)N(Cc3c(F)cccc3Cl)c3ccccc32)c1C [Compound 7b]")
4
>>> experimental_result("Cc1ccc[n+](CC(=O)N/N=C2\\C(=O)N(Cc3cccc(C(F)(F)F)c3)c3ccccc32)c1C [Compound 7c]")
6
>>> experimental_result("O=C(C[n+]1ccccc1)NN=C1C(=O)N(Cc2cccc(C(F)(F)F)c2)c2ccc(F)cc21.[Cl-] [Compound 5c]")
5
>>> experimental_result("O=C(C[n+]1ccccc1)NN=C1C(=O)N(Cc2c(F)cccc2Cl)c2ccc(F)cc21.[Cl-] [Compound 5b]")
4

* * *

The molecules listed here are annotated with their inhibition of growth at 1 µM.
# Test system: Phytophthora cactorum VKM F-985
# method: Mycelial radial growth inhibition
# Format: cell-based
# measurement parameters: Phytophthora cactorum, 72 h; 1 nmol/mL; age of the fungus 3 days; read-out: Inhibition value, I (%)
metric name: inhibition of growth at 1 µM (%)

>>> experimental_result("Cc1ccc2c(c1)C(=NNC(=O)C[n+]1ccccc1)C(=O)N2Cc1cccc(C(F)(F)F)c1.[Cl-]")
20
>>> experimental_result("O=C(C[n+]1ccccc1)NN=C1C(=O)N(Cc2c(F)cccc2Cl)c2ccc(F)cc21.[Cl-]")
18
>>> experimental_result("O=C(C[n+]1ccccc1)NN=C1C(=O)N(Cc2c(F)c(F)c(F)c(F)c2F)c2ccc(F)cc21.[Cl-]")
15
>>> experimental_result("Cc1ccc[n+](CC(=O)N/N=C2\\C(=O)N(Cc3cccc(C(F)(F)F)c3)c3ccccc32)c1C")
10

* * *

# Test system: Fusarium oxysporum IBPPM 543
# method: Mycelial radial growth inhibition
# Type: cell-based
# measurement parameters: Fusarium oxysporum, IBPPM543, 168 h; 5 nmol/mL; age of the fungus 7 days; read-out: Inhibition value, I (%)
metric name: inhibition of growth at 5 µM (%)

>>> experimental_result("Cc1ccc[n+](CC(=O)N/N=C2\\C(=O)N(Cc3cccc(C(F)(F)F)c3)c3ccccc32)c1C [Compound 7c]")
27
>>> experimental_result("O=C(C[n+]1ccccc1)NN=C1C(=O)N(Cc2ccccc2F)c2ccc(F)cc21.[Cl-] [Compound 5a]")
23
>>> experimental_result("Cc1ccc[n+](CC(=O)N/N=C2\\C(=O)N(Cc3c(F)cccc3Cl)c3ccccc32)c1C [Compound 7b]")
20
